# procedure_summary: NCI Yeast Anticancer Drug Screen. Data for the rad14 strain (AID 159);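 also: 0% = growth of vehicle-treated control cultures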
# condition_parameters: S. cerevisiae rad14 strain growth inhibition; at 3.7 µM; hits give high values
Compounds without any hit were thinned out: in the full panel of roughly 79,000, 15% have a hit.
measurement_label: growth inhibition (%)
Numbers only, in %.

Oc1ccc(NCn2c(=S)sc3ccccc32)cc1    -8
CC(C)(C)c1nc2c(o1)C(=O)c1ccccc1C2=O    -5
CSC(=S)N/N=C(\C)c1cccc(C)n1    6

Each compound below has a reported value. Please supply its growth inhibition.
1. O=C1c2ccccc2-c2n[nH]c3cccc1c23
2. COc1cc(C2c3cc4c(cc3OC(NNc3ccccc3)C2C)OCO4)cc(OC)c1OC (stereo not given)
3. CCCCCCCCCCCC1=C(O)C(=O)C=C(O)C1=O
4. CCCCc1cc(O)ccc1O
5. Cn1c(=O)c(-c2ccccc2)c(N=[N+]=[N-])c2ccccc21

Result string:
[-24, 1, 0, 3, 4]

Each compound below has a reported value. Please supply its growth inhibition.
1. O=[N+]([O-])C(=C(Sc1ccccc1)Sc1ccccc1)C(Cl)=C(Cl)Cl
2. Cc1nc(-[n+]2nc(-c3ccncc3)nn2-c2ccccc2)sc1C

Result string:
1. 7
2. -3

====

Assign growth inhibition to each entry below.
# procedure_summary: NCI Yeast Anticancer Drug Screen. Data for the mec2-1 strain (AID 157)
# condition_parameters: S. cerevisiae mec2-1 strain, at 100.0 µM, hits give high values
The panel holds about 79,000 compounds, 15% with a hit somewhere; the sample as a whole holds those more often.
Numbers only, in %.

Known growth inhibition results, listed for orientation:
CCCCOC(=O)N[C@H]1CCc2cc(OC)c(OC)c(OC)c2-c2ccc(SC)c(=O)cc21    81
COc1cc2ccc(/C=C\[N+](=O)[O-])cc2cc1OC    95
CCCc1cc(C(=O)OCC)cc(CCC)c1O    95
COc1ccc2ccc3ccccc3c2c1C=O    96

Each compound below has a reported value. Please supply its growth inhibition.
1. CN(C)CCOc1ccc2c(c1)C/C(=C/c1ncc([N+](=O)[O-])n1C)C2=O
2. CCN(CC)[P+](c1ccccc1O)(N(CC)CC)N(CC)CC

Result string:
90
85

====

# procedure_summary: NCI Yeast Anticancer Drug Screen. Data for the rad50 strain (AID 155);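 also: 0% = growth of vehicle-only cultures of the same strain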
# condition_parameters: S. cerevisiae rad50 strain growth inhibition; at 1.2 µM; hits give high values
About 79,000 compounds went through this panel and 15% of them were active in at least one assay; those are over-represented in the sample as a whole.
Assign growth inhibition to each entry below.
Give bare numbers, in %.

Known growth inhibition results, listed for orientation:
O=C1Nc2ccc(Cl)c(I)c2C1=O    -6
Cc1ccc(-c2ccc(Nc3c4ccccc4nc4ccccc34)cc2)cn1    15
C[S+](C)C1(c2ccccc2)C(=O)c2ccccc2C1=O    1
CC(=O)SCCC[Si](C)(C)CCCSC(C)=O    1
COc1ccc(/C=C2\SC(=S)N(/C=C/c3nc4ccccc4[nH]c3=O)C2=O)cc1OC    -2
Cc1ccc(S(=O)(=O)Oc2cc(Cl)c(Cl)cc2Cl)cc1    -2

Each compound below has a reported value. Please supply its growth inhibition.
1. O=C1c2ccccc2-c2nc3ccccc3nc21
2. Brc1ccc(-c2cc3c(cc2C2SCCS2)OCO3)cc1
3. CN(CCc1ccccn1)c1ccc2c(c1)Cc1ccccc1-2
4. NCCNc1ccc(NCCN)c2c1C(=O)c1c(O)ccc(O)c1C2=O
5. CCC#CCCCOC(=O)c1cc([N+](=O)[O-])cc([N+](=O)[O-])c1
6. COC(=O)c1cc(-c2ccc(C)cc2)[nH]c(=O)c1C#N

Result string:
[-6, -23, 4, 20, -4, -1]

Each compound below has a reported value. Please supply its growth inhibition.
1. CCCN(CCC)CC(O)c1cc(-c2ccc(Cl)cc2)nc2c(C)c(Cl)ccc12 (centres undefined)
2. Clc1ccc(SC(/C=C/NNC2=NC(c3ccccc3)C(c3ccccc3)=NN2)c2ccccc2)cc1 (centres undefined)

Result string:
[-3, 4]
